Biological target: 5-lipoxygenase (Mus musculus)
Construct: The IL-3-dependent murine mast cell clone, MC-9, was used to test the effects; endogenous in cells; host or cells: MC-9 (IL-3-dependent murine mast cell clone)
Sequence (P48999 whole entry): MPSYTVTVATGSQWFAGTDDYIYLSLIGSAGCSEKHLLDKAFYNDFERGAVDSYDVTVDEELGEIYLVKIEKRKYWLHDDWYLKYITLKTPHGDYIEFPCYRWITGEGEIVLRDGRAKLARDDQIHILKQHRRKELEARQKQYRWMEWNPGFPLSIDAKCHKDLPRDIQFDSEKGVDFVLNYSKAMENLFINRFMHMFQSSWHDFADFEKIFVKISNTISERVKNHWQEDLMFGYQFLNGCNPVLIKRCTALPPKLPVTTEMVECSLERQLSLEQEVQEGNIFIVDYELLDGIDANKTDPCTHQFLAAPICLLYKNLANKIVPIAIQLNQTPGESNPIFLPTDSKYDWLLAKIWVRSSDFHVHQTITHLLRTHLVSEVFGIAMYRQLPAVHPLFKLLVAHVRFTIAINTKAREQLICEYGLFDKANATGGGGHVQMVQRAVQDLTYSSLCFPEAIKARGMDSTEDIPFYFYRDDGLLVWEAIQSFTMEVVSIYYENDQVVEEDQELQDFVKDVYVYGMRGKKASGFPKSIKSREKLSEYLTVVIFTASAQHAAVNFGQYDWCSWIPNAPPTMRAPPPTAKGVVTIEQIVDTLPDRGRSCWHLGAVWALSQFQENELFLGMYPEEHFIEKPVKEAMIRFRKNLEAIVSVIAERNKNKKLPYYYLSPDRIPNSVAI
Assay: 5-Lipoxygenase assay (murine mast cell clone MC-9)
Type: cell-based
Conditions: MC9, 5 min; MC-9 cell, dose 5 μm; read-out: % Inhibition 5-HETE
Excerpt: The IL-3-dependent murine mast cell clone, MC-9, was used to test the effects of representative compounds of the invention on lipoxygenase activity. […]
Decide using inhibition at 5 µM: a value greater than or equal to 40% is Yes, a smaller one is No.

Observe how each entry below is paired with its result.
Q: Form field: inhibition at 5 µM at least 40%? Entry: CC(=O)Oc1cc(OC(C)=O)c2c(c1)C(C)(C)C(c1ccc(OC(C)=O)c(OC(C)=O)c1)=CC2=O
A: Yes

Q: Form field: inhibition at 5 µM at least 40%? Entry: COc1cc(OC)c2c(c1)C(C)(C)C(c1ccc(OC)c(OC)c1)=CC2=O
A: No

Q: Form field: inhibition at 5 µM at least 40%? Entry: COc1cc(OC)c2c(c1)C(C)(C)C(c1ccc(OC)c(OC)c1)CC2 (centres unmarked)
A: No

Q: Form field: inhibition at 5 µM at least 40%? Entry: COc1cc(OC)c2c(c1)C(C)(C)C(c1ccc(OC)c(OC)c1)CC2(C)O (centres unmarked)
A: No

Q: Form field: inhibition at 5 µM at least 40%? Entry: CC1(C)C(c2ccc(O)c(O)c2)=CC(=O)c2c(O)cc(O)cc21
A: Yes

Q: Form field: inhibition at 5 µM at least 40%? Entry: CC1(C)c2cc(O)cc(O)c2CCC1c1ccc(O)c(O)c1 (centres unmarked)
A: Yes

Q: Form field: inhibition at 5 µM at least 40%? Entry: COc1cc(O)c2c(c1)C(C)(C)C(c1ccc(O)c(O)c1)=CC2=O
A: Yes

Q: Form field: inhibition at 5 µM at least 40%? Entry: CC1(C)C(c2ccc(O)c(O)c2)=C(O)C(=O)c2c(O)cc(O)cc21
A: Yes

Further cases:
Q: Form field: inhibition at 5 µM at least 40%? Entry: COc1cc(OC)c2c(c1)C(C)(C)C(c1ccc(OC)c(OC)c1)CC2O (centres unmarked)
A: No

Q: Form field: inhibition at 5 µM at least 40%? Entry: COc1cc(OC)c2c(c1)C(C)(C)C(c1ccc(OC)c(OC)c1)CC2=O (centres unmarked)
A: No

Q: Form field: inhibition at 5 µM at least 40%? Entry: COc1cc(OC)c2c(c1)C(C)(C)C(c1ccc(OC)c(OC)c1)CC2=NO (centres unmarked)
A: Yes

* * *

System: anaphylactic bronchospasm (antigen-induced SRS-A mediated bronchoconstriction)
Assay: Inhibition of anaphylactic bronchospasm in sensitized guinea pigs
Type: in vivo, guinea pig
Settings: Cavia porcellus, iv, 0.25 h, Dose 10 mpk, read-out: % Inhibition of anaphylactic bronchospasm
Decide using inhibition in vivo at 10 mg/kg: a value greater than or equal to 20% is MET, a smaller one is NOT MET.

Observe how each entry below is paired with its result.
Q: Form field: inhibition in vivo at 10 mg/kg at least 20%? Entry: COc1cc(OC)c2c(c1)C(C)(C)C(c1ccc(OC)c(OC)c1)=C(C)C2=O
A: MET

Q: Form field: inhibition in vivo at 10 mg/kg at least 20%? Entry: COc1cc(OC)c2c(c1)C(C)(C)C(c1ccc(OC)c(OC)c1)=CC2=O
A: MET

Q: Form field: inhibition in vivo at 10 mg/kg at least 20%? Entry: COc1cc(OC)c2c(c1)C(C)(C)C(c1ccc(OC)c(OC)c1)CCC2=NO (centres unmarked) [drawing 90 [X=NOH; W=H; J=H]]
A: NOT MET

Q: Form field: inhibition in vivo at 10 mg/kg at least 20%? Entry: CC(=O)Oc1cc(OC(C)=O)c2c(c1)C(C)(C)C(c1ccc(OC(C)=O)c(OC(C)=O)c1)=CC2=O
A: NOT MET

Q: Form field: inhibition in vivo at 10 mg/kg at least 20%? Entry: COc1cc(O)c2c(c1)C(C)(C)C(c1ccc(OC)c(OC)c1)CC2=NO (centres unmarked)
A: NOT MET

Further cases:
Q: Form field: inhibition in vivo at 10 mg/kg at least 20%? Entry: COc1cc(OC)c2c(c1)C(C)(C)C(c1ccc(OC)c(OC)c1)CC(C)C2=O (centres unmarked) [drawing 90 [X=O; W=H; J=CH3]]
A: MET

Q: Form field: inhibition in vivo at 10 mg/kg at least 20%? Entry: COc1ccc2c(c1)C(C)(C)C(c1ccc(OC)c(OC)c1)CCN2 (centres unmarked) [drawing 89 [X=NH; R3/R4=H,H; P=H]]
A: MET

Q: Form field: inhibition in vivo at 10 mg/kg at least 20%? Entry: COc1cc(OC)c2c(c1)C(C)(C)C(c1ccc(OC)c(OC)c1)CCN2 (centres unmarked) [drawing 89 [X=NH; R3/R4=H,H; P=OCH3]]
A: MET

* * *

Examples of compounds with documented inhibition in vivo at 10 mg/kg follow.
Test system: anaphylactic bronchospasm (antigen-induced SRS-A mediated bronchoconstriction)
Experiment: Inhibition of anaphylactic bronchospasm in sensitized guinea pigs
Format: in vivo, guinea pig
Settings: Cavia porcellus, iv, 0.25 h, Dose 10 mpk, read-out: % Inhibition of anaphylactic bronchospasm
Output spec: scalar in %, unitless text.

Q: Look up inhibition in vivo at 10 mg/kg: COc1cc(OC)c2c(c1)C(C)(C)C(c1ccc(OC)c(OC)c1)=CC2=NO
A: 0

* * *

Target: 5-lipoxygenase (Homo sapiens)
Construct: Human polymorphonuclear leukocytes (neutrophils) were obtained from normal healthy volunteers; endogenous in cells; host or cells: human blood neutrophils from healthy volunteers
Sequence (P09917 whole entry): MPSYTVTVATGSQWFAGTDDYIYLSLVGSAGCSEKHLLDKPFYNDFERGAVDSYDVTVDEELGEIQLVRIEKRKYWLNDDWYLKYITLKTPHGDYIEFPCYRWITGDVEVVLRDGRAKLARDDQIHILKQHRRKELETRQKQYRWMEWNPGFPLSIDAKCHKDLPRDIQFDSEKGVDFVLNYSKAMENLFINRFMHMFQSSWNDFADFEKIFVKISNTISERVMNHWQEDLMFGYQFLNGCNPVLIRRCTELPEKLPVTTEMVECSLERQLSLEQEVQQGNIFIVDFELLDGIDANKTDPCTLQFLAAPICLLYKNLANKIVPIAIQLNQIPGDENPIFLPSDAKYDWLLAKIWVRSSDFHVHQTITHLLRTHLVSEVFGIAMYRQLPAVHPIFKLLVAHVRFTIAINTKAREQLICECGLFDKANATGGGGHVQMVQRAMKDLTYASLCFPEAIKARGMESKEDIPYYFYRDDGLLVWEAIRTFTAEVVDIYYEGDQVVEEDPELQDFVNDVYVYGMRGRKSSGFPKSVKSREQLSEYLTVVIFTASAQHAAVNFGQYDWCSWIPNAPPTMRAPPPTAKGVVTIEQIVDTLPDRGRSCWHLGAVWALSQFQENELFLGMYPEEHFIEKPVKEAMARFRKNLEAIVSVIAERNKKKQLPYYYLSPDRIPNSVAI
Assay: 5-Lipoxygenase assay with human neutrophils
Type: cell-based
Settings: 5 min; Human PMN, dose 15 μm (μM); read-out: % Inhibition LTB
Decide using inhibition at 15 µM: a value greater than or equal to 30% is true, a smaller one is false.

Observe how each entry below is paired with its result.
Q: Form field: inhibition at 15 µM at least 30%? Entry: COc1cc(OC)c2c(c1)C(C)(C)C(c1ccc(OC)c(OC)c1)CCN2 (centres unmarked) [drawing 89 [X=NH; R3/R4=H,H; P=OCH3]]
A: true

Q: Form field: inhibition at 15 µM at least 30%? Entry: COc1cc(OC)c2c(c1)C(C)(C)C(c1ccc(OC)c(OC)c1)CCC2=O (centres unmarked) [drawing 90 [X=O; W=H; J=H]]
A: true

Q: Form field: inhibition at 15 µM at least 30%? Entry: CON=C1CC(c2ccc(OC)c(OC)c2)C(C)(C)c2cc(OC)cc(OC)c21 (centres unmarked)
A: true

Q: Form field: inhibition at 15 µM at least 30%? Entry: COc1cc(OC)c2c(c1)C(C)(C)C(c1ccc(OC)c(OC)c1)CC2=NNC(C)=O (centres unmarked)
A: false

Q: Form field: inhibition at 15 µM at least 30%? Entry: COc1ccc(C2CC(=O)c3c(cc(OC)c(OC)c3OC)C2(C)C)cc1OC (centres unmarked)
A: false

Further cases:
Q: Form field: inhibition at 15 µM at least 30%? Entry: COc1cc(OC)c2c(c1)C(C)(C)C(c1ccc(OC)c(OC)c1)CCO2 (centres unmarked) [drawing 106 [X=O; R3/R4=H,H; J=H; L,P=OCH3]]
A: false

Q: Form field: inhibition at 15 µM at least 30%? Entry: COc1cc(OC)cc(C2=CC(=O)c3c(OC)cc(OC)cc3C2(C)C)c1
A: false

Q: Form field: inhibition at 15 µM at least 30%? Entry: COc1cc(OC)c2c(c1)C(C)(C)C(c1ccc(OC)c(OC)c1)CC2=NNC(=O)c1ccccc1O (centres unmarked)
A: true

Q: Form field: inhibition at 15 µM at least 30%? Entry: C=CCC1C(=O)c2c(OC)cc(OC)cc2C(C)(C)C1c1ccc(OC)c(OC)c1 (centres unmarked)
A: false

Q: Form field: inhibition at 15 µM at least 30%? Entry: COc1cc(OC)c2c(c1)C(C)(C)C(c1ccc(OC)c(OC)c1)CC2N (centres unmarked)
A: false

Q: Form field: inhibition at 15 µM at least 30%? Entry: COc1ccc(C2CC(=O)Cc3c(OC)cccc3C2(C)C)cc1OC (centres unmarked)
A: false

* * *

Molecular target: 5-lipoxygenase (Homo sapiens)
Construct: Human polymorphonuclear leukocytes (neutrophils) were obtained from normal healthy volunteers; endogenous in cells; host or cells: human blood neutrophils from healthy volunteers
Assay: 5-Lipoxygenase assay with human neutrophils
Assay type: cell-based
Settings: 5 min; Human PMN, dose 15 μm (μM); read-out: % Inhibition LTB
Examples of compounds with documented inhibition at 15 µM follow.
Output spec: scalar in %, unitless text.

See these solved cases before continuing.
Q: Item: COc1cc(OC)c2c(c1)C(C)(C)C(c1ccc(OC)c(OC)c1)C(C=O)C2=O (stereo not drawn) Test system: 5-lipoxygenase (Homo sapiens) Read-out: inhibition at 15 µM Value: ?
A: 0

Q: Item: COc1cc(OC)c2c(c1)C(C)(C)C(c1ccc(OC)c(OC)c1)=C(C)C2=O Test system: 5-lipoxygenase (Homo sapiens) Read-out: inhibition at 15 µM Value: ?
A: 0

Q: Item: COc1cc(OC)c2c(c1)C(C)(C)C(c1ccc(OC)c(OC)c1)CC2NC(C)=O (stereo not drawn) Test system: 5-lipoxygenase (Homo sapiens) Read-out: inhibition at 15 µM Value: ?
A: 4

Q: Item: CCOC(=O)C1C(=O)c2c(OC)cc(OC)cc2C(C)(C)C1c1ccc(OC)c(OC)c1 (stereo not drawn) Test system: 5-lipoxygenase (Homo sapiens) Read-out: inhibition at 15 µM Value: ?
A: 89

Q: Item: COc1cc(OC)c2c(c1)C(C)(C)C(c1ccc(OC)c(OC)c1)CC2=NNC(=O)c1ccccc1 (stereo not drawn) Test system: 5-lipoxygenase (Homo sapiens) Read-out: inhibition at 15 µM Value: ?
A: 38

Further cases:
Q: Item: CC1=C(c2ccc(O)c(O)c2)C(C)(C)c2cc(O)cc(O)c2C1=O Test system: 5-lipoxygenase (Homo sapiens) Read-out: inhibition at 15 µM Value: ?
A: 96

Q: Item: COc1cc(OC)c2c(c1)C(C)(C)C(c1ccc(OC)c(OC)c1)=CC2=NO Test system: 5-lipoxygenase (Homo sapiens) Read-out: inhibition at 15 µM Value: ?
A: 9

Q: Item: COc1cc(OC)c2c(c1)C(C)(C)C(c1ccc(OC)c(OC)c1)CC2=NNC(N)=O (stereo not drawn) Test system: 5-lipoxygenase (Homo sapiens) Read-out: inhibition at 15 µM Value: ?
A: 0

Q: Item: COc1cc(OC)c2c(c1)C(C)(C)C(c1ccc(OC)c(OC)c1)CC2=NOC(C)=O (stereo not drawn) Test system: 5-lipoxygenase (Homo sapiens) Read-out: inhibition at 15 µM Value: ?
A: 18
